Give measured apparent KD of K4 kissing-loop reporter for each item. Keep answers brief.
Test system: K4 kissing-loop RNA reporter;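 further: bound reporter read as fluorescence of individual clusters on recovered sequencing chips by microscopy, with normalized cluster intensities fitted with a binding model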
Experiment: apparent KD of K4 kissing-loop reporter; higher = weaker reporter binding
Conditions: Eterna round: R107; input ligand: FMN 200 uM
// units = nM; emit number, no label

## Input Any idea what apparent KD of K4 kissing-loop reporter came out for CAGAUGUAGGCGGCCGCCACUCUCAUUACCGUACGCAAGUAUGAUUAGAAGUGAUGUUUCUCGGUGAGGACCGGGCCAUUCCCGA [theeternabot_sameState_KL_Trp_B_27] on K4 kissing-loop RNA reporter?
## Output 690

## Input Any idea what apparent KD of K4 kissing-loop reporter came out for AUGGGUCCACGAAGGAGCGCCGUGCAGUGAUGUUGCAGUUAGAUCCAGUGAUGUUUGGGCCGGCAGGUAGGUCGCGUGGAUUUAU [Exclusion Arginine B GF 22] on K4 kissing-loop RNA reporter?
## Output 249

## Input Any idea what apparent KD of K4 kissing-loop reporter came out for GUAUCGCUAGGAGGAUAUUUCAAUUCGUCAAUAAAUGGUGAUACGGAGUGAUGUUCCGAUUUACGGAAAGAAGGCCUAGUGAUAC [FMN B 7] on K4 kissing-loop RNA reporter?
## Output 173

## Input Any idea what apparent KD of K4 kissing-loop reporter came out for GUUAAUAGUAGUGAUGUUACAAUAGUUUGUGAGGAUAUCCCGAAAGGGAGAAGGCACAAACAAAUAGAUUCUCACAAAUAUUUAC [FMN A exclusion] on K4 kissing-loop RNA reporter?
## Output 191

## Input Any idea what apparent KD of K4 kissing-loop reporter came out for UAUAUAGUGACGGCCGCCACUAUAGUAAUGUUUUUGUUAGAGUGAUGUUUUGUUUUUUAAUUUUAUAGGACCGGGUUAUAUGUUA [llpmullin] on K4 kissing-loop RNA reporter?
## Output 360

## Input Any idea what apparent KD of K4 kissing-loop reporter came out for GAUUUAGAGGCGGCCGCCACUAGUGAUGUUAGUGAUGUUUGAUACUGAAUAUAUCUGCGUGUAGAUAGGACCGGGCCAGAUGGAG [eyerullin] on K4 kissing-loop RNA reporter?
## Output 210
